B1: SPOPL (parent)
chain: YTGRAPNLDKMADNLLAAADKYAL

variants of: B1; test: protein stability index of a GFP-peptide fusion (GPS, HEK-293T) (PSI 1-6); higher = more stable; conditions: c terminus: a fixed tail appended;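 note: lentivirally expressed fusions sorted by FACS into six bins by GFP to DsRed ratio, PSI derived from sequencing read proportions per bin multiplied by bin number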
Entries and their protein stability index
Respond using a number only.

• A5H = 1.47
• L16N = 2.22
• Y22E = 3.04
• A19R = 2.25
• A18Q = 3.07
• T2Y = 2.15
• L24Q = 2.16
• A19N = 2.49

Please turn your attention to the following entry.
Input: Quick one: protein stability index of L24V ?
Output: 2

FYI, the data here is from the supplement of paper PMC10567573.
